TEST_NAME: physchem
REPORTED_CONDITIONS: sodium acetate/acetic acid buffer, pH 5
ENDPOINT: solubility (µg/mL)

>>> print(df.to_string())
                                   molecule    endpoint  measure_unit  value_measured
0  CN(CC(N)=O)C[C@@H]1CC[C@H](OCc2cc(C(F)(F)F)cc(C(F)(F)F)c2)[C@H]1c1ccccc1 (racemic)  solubility         µg/mL             300

I. O=C1CC[C@@H](CN[C@@H]2CC[C@H](OCc3cc(C(F)(F)F)cc(C(F)(F)F)c3)[C@H]2c2ccccc2)N1
II. CN(CC(N)=O)[C@@H]1CC[C@H](OCc2cc(C(F)(F)F)cc(C(F)(F)F)c2)[C@H]1c1ccccc1 (racemic)
*Q* // compare measured solubility between I and II ; output the lower one Pick one and reply with its label.
*A* II

Each recorded value in this set is attributed to ChEMBL document CHEMBL1149520.
